- System: Leptinotarsa decemlineata
- method_summary: Insecticidal activity against third-instar larval stage of Leptinotarsa decemlineata infested potato leaves assessed as mortality at 10 ul after 48 hr (reference value: 3.3 +/- 3.3%)
- Type: functional
Label y when mortality < 60%; otherwise n.

Q: Below 60% on mortality? Entry C=C(C)[C@@H]1CC[C@@H](C)C(=O)C1 [DIHYDROCARVONE]
A: y

Q: mortality strictly < 60% for this compound? `C=CC(=C)CCC=C(C)C`
A: y

Q: Criterion: mortality strictly below 60%. Is it met by CC1=CCC2C(C1)C2(C)C (configuration not stated) ?
A: n

Q: Dear colleague, could you confirm whether mortality of `CC(C)=CCC/C(C)=C\CO` falls below 60%? Thanks.
A: n

Q: For C=CC(C)(O)CCC=C(C)C (configuration not stated) , is the recorded mortality below the cut-off of 60%?
A: y

Q: Input `C=C(C)[C@H]1CC=C(C)CC1` ; condition: mortality strictly below 60%. Does it hold?
A: y

Q: Consider the compound C=C(C)C1CCC2(C)OC2C1 (configuration not stated) [LIMONENE OXIDE] . Is its mortality strictly less than 60%?
A: y

----------
- Tested on: Leptinotarsa decemlineata
- method_summary: Insecticidal activity against third-instar larval stage of Leptinotarsa decemlineata infested potato leaves assessed as mortality at 10 ul after 48 hr (reference value: 3.3 +/- 3.3%)
- Assay type: functional
metric_name: mortality (%)
Write the answer as a number in %, unit excluded.

Q: # get_value(readout= mortality, system= Leptinotarsa decemlineata) for C=C(C)C1CC=C(C)C(=O)C1 (stereo unspecified)
A: 13.3

Q: // fetch Leptinotarsa decemlineata mortality for CC1=CCC(O)(C(C)C)CC1 (stereo unspecified)
A: 23.3

Q: Form field - read-out: mortality; system: Leptinotarsa decemlineata; submitted item: CC(C)[C@H]1CC[C@H](C)CC1=O (relative stereo)
A: 53.3

Q: Please provide the recorded mortality for CC(C)=CCCC(C)CCO (stereo unspecified) , tested on Leptinotarsa decemlineata.
A: 23.3

Q: Hi! What's the reported mortality for `CC12CCC(CC1)C(C)(C)O2` on Leptinotarsa decemlineata?
A: 63.3

Q: Provide the documented mortality with Leptinotarsa decemlineata as the system for CC(=O)OC/C=C(\C)CCC=C(C)C [GERANYL ACETATE]
A: 13.3

----------
- System: Leptinotarsa decemlineata
- Type: functional, Instar larval stage
Kind request: treat 20% as inclusive, so mortality at 20% or higher is fulfilled, anything lower is not fulfilled.

Q: Is the recorded value of mortality equal to or greater than 20% for this molecule? CC12CCC(CC1=O)C2(C)C (configuration not stated) [CAMPHOR]
A: fulfilled

Q: Does CC(C)[C@H]1CC[C@@H](C)C[C@@H]1O [ISOMENTHOL] have a reported mortality of at least 20%?
A: not fulfilled

Q: Is reported mortality greater than or equal to 20% here: CC1CCC(C(C)C)C(O)C1 (configuration not stated) [MENTHOL]
A: fulfilled

Q: Is mortality for CC12CCC(C1)C(C)(C)C2=O (configuration not stated) [FENCHONE] at or above 20%?
A: fulfilled

Q: Textbook exercise: given the entry CC1=CC[C@@H](C(C)(C)O)CC1 [ALPHA-TERPINEOL] , state whether its mortality is greater than or equal to 20%.
A: not fulfilled

Q: # bool: mortality of CC12CCC(C1)C(C)(C)C2O (configuration not stated) [FENCHYL ALCOHOL] >= 20%
A: not fulfilled
